- target.or.test.system: Bs-CspB G35A (Bacillus subtilis, UniProt P32081 1-67, G35A)
- assay.explanation: tryptophan fluorescence quenching
measurement.type: Kd (nM)
// note: answer is a bare numeric in nM

**Query** Consider the binder TTTTTTT (ssDNA) [dT7] and give its measured Kd.
**Result** 1.1

Hey, just so you know, these numbers are from paper PMC1636342.
